- measured-target: esterase (purified microsome fraction of the liver of a rat)
- protocol: Esterase inhibiting activity (hydrolysis of methyl butyrate)
- condition-context: methyl butyrate substrate, pH 8.0, 37° C., 60 minutes
pIC50: −log10 of the molar value.
# cutoff 5 applies to pIC50; >= gives Yes, < gives No

>>> classification("CCC(C(=O)COS(=O)(=O)c1ccc(C)cc1)C1CCC(C)CC1 (centres unmarked)")
"No"
>>> classification("Cc1cc(C)c(S(=O)(=O)OCC(=O)CC(C)C2CCCCC2)c(C)c1 (centres unmarked)")
"Yes"
>>> classification("CCC(CC1CCCCC1)C(=O)COS(=O)(=O)c1ccccc1 (centres unmarked)")
"Yes"
>>> classification("CC(CC(=O)COS(=O)(=O)c1ccccc1)C1CCCCC1 (centres unmarked)")
"Yes"
>>> classification("CCOc1ccc(S(=O)(=O)OCC(=O)C(CC)CC2CCCCC2)cc1 (centres unmarked)")
"No"
>>> classification("CCOc1ccc(S(=O)(=O)OCC(=O)CC2CCC(C)CC2)cc1 (centres unmarked)")
"Yes"

Exam item: decide whether the reported pIC50 for CCOc1ccc(S(=O)(=O)OCC(=O)[C@H]2CC[C@H](C(C)C)CC2)cc1 is at least 5.
Yes

Exam item: decide whether the reported pIC50 for CC(C)[C@H]1CC[C@H](C(=O)COS(=O)(=O)c2ccccc2)CC1 is at least 5.
Yes

Exam item: decide whether the reported pIC50 for Cc1ccc(S(=O)(=O)OCC(=O)CC(C)C2CCCCC2)cc1 (centres unmarked) is at least 5.
Yes

Exam item: decide whether the reported pIC50 for CCC(C)[C@H]1CC[C@@H](C(=O)COS(=O)(=O)c2ccccc2)CC1 (some centres unmarked) is at least 5.
Yes

Exam item: decide whether the reported pIC50 for CC(C)C1CCC(CC(=O)COS(=O)(=O)c2ccccc2)CC1 (centres unmarked) is at least 5.
Yes

Exam item: decide whether the reported pIC50 for Cc1ccc(S(=O)(=O)OCC(=O)[C@H]2CC[C@@H](C(C)(C)C)CC2)cc1 is at least 5.
No

Exam item: decide whether the reported pIC50 for Cc1ccc(S(=O)(=O)OCC(=O)[C@H]2CC[C@H](C(C)(C)C)CC2)cc1 is at least 5.
Yes

Exam item: decide whether the reported pIC50 for CCC(C)[C@H]1CC[C@H](C(=O)COS(=O)(=O)c2ccccc2)CC1 (some centres unmarked) is at least 5.
Yes

Exam item: decide whether the reported pIC50 for CC(C)[C@H]1CC[C@@H](C(=O)COS(=O)(=O)c2ccccc2)CC1 is at least 5.
Yes

Exam item: decide whether the reported pIC50 for CC(C)C[C@H]1CC[C@@H](C(=O)COS(=O)(=O)c2ccccc2)CC1 is at least 5.
Yes

Exam item: decide whether the reported pIC50 for CCC1CCC(C(=O)COS(=O)(=O)c2ccccc2)CC1 (centres unmarked) is at least 5.
Yes

Exam item: decide whether the reported pIC50 for CCOc1ccc(S(=O)(=O)OCC(=O)C(CC)C2CCC(C)CC2)cc1 (centres unmarked) is at least 5.
No
